The values you see were collected from PubChem BioAssay (NCI).

- System: HL-60(TB) leukemia
- test-protocol: NCI-60 one-dose screen, 48 h
- stated-conditions: 10 µM unless noted
Compounds without any hit were thinned out: in the full panel of roughly 83,000, 20% have a hit. Calls of active or inactive are those of the source. How the source made its calls: active means growth percent below 10; inactive means the rest.
Bench note: report the call from YES (active), NO (inactive)

Per the records of this test, what outcome belongs to `O=C(CSc1nnc(-c2cc3c([nH]c4ccccc43)c(-c3cccc(O)c3)n2)n1-c1ccccc1)c1ccccc1` ?
NO

Per the records of this test, what outcome belongs to `COc1cccc(-c2nc3sccn3c2-c2ccnc(NCCN3CCCN(C)S3(=O)=O)n2)c1` ?
NO

Per the records of this test, what outcome belongs to `O=C1c2cc3c(cc2-c2c1c1ccc(Cl)cc1c(=O)n2C[C@H](O)[C@@H](O)[C@H](O)CO)OCO3` ?
YES

Per the records of this test, what outcome belongs to `O=C(/C(=C/c1ccc([N+](=O)[O-])cc1)SCc1ccccc1)c1ccc(Cl)cc1` ?
NO

Per the records of this test, what outcome belongs to `CCCCCc1cc[n+](CC(=O)c2ccc(Cl)cc2)cc1` ?
NO

Per the records of this test, what outcome belongs to CC(=O)C1=C(C)NC(SCc2nnc(-c3ccc(C)cc3)o2)=NC1c1ccc(F)cc1 (stereo unspecified) ?
NO

###

- Test system: HL-60(TB) leukemia
- test-protocol: NCI-60 one-dose screen, 48 h (100 = growth as untreated, 0 = no growth, -100 = all killed)
- stated-conditions: 10 µM unless noted
This is part of a sample that, as a whole, favours compounds with a hit. Of some 83,000 tested, about 20% had one in any assay.
readout-name: growth (%)
// units = %; emit number, no label

Please report the measured growth for `COc1ccc(C(C#N)=C2C=CC(=NO)C=C2)cc1` tested on HL-60(TB) leukemia.
52.4

Please report the measured growth for CC(C)CCN(CCC(C)C)CC(O)c1cc2c(c3ccccc13)CCCC2 (configuration not stated) tested on HL-60(TB) leukemia.
78.6

Please report the measured growth for `Nc1ncc(-c2ccc3ncnc(Nc4cncc(Cl)c4)c3c2)cn1` tested on HL-60(TB) leukemia.
92.5

Please report the measured growth for `Cc1cnc(SCc2ccc(Cl)cc2Cl)nc1Nc1ccc(Cl)c(Cl)c1` tested on HL-60(TB) leukemia.
81

Please report the measured growth for CNC1=C([N+](=O)[O-])C(c2ccc(OC)cc2)C(C#N)=C(c2cccs2)O1 (configuration not stated) tested on HL-60(TB) leukemia.
99.5

Please report the measured growth for `CN(C)c1nc(-c2cccs2)n2nc(-c3ccc(Cl)cc3)cc2n1` tested on HL-60(TB) leukemia.
87.8

Please report the measured growth for `O=C(/C=C/c1cc2ccccc2[nH]c1=O)c1ccc2c(c1)OCO2` tested on HL-60(TB) leukemia.
79

Please report the measured growth for `C[C@@H]1NC(=O)[C@H](Cc2ccccc2)N(Cc2cccnc2)C1=O` tested on HL-60(TB) leukemia.
103

Please report the measured growth for `O=C(C[n+]1cccc2ccccc21)c1ccc(O)c(O)c1` tested on HL-60(TB) leukemia.
-20

Please report the measured growth for CC1(C)OC2OC3C(CN)OC(c4ccccc4)OC3C2O1 (configuration not stated) tested on HL-60(TB) leukemia.
49.3

Please report the measured growth for `CC1=NN(c2cccc(Cl)c2)C(=O)/C1=C\c1cn(-c2nc(N3CCOCC3)nc(N3CCOCC3)n2)c2ccccc12` tested on HL-60(TB) leukemia.
99.1

Please report the measured growth for `O=S(=O)(NCCCNc1cc(-c2cn(-c3ccccc3)nc2-c2ccccc2)ccn1)c1ccc(C(F)(F)F)cc1` tested on HL-60(TB) leukemia.
39.1

Please report the measured growth for `NCCCCCNc1noc(Cc2c[nH]c3cc(Br)ccc23)n1` tested on HL-60(TB) leukemia.
-48.8

Please report the measured growth for `CNC(=O)c1cc(Oc2ccc3nc(NC(=O)Nc4ccc(Cl)c(Cl)c4)sc3c2)ccn1` tested on HL-60(TB) leukemia.
78.8

Please report the measured growth for `Cc1cc(=O)n(-c2ccc(F)cc2)[nH]1` tested on HL-60(TB) leukemia.
101

Please report the measured growth for `O=C1/C(=C/c2ccc(Cl)c(Cl)c2)CN(C(=O)CCN2CCC(=NO)CC2)C/C1=C\c1ccc(Cl)c(Cl)c1` tested on HL-60(TB) leukemia.
-16

Please report the measured growth for `Cc1ccccc1C[P+](c1ccccc1)(c1ccccc1)c1ccccc1` tested on HL-60(TB) leukemia.
1.16

Please report the measured growth for `CCOC(=O)c1ccc2nc(-c3c(C)nn(-c4ccccc4)c3N3CCOCC3)[nH]c2c1` tested on HL-60(TB) leukemia.
95.4

Please report the measured growth for `C=C1C(=O)O[C@H]2[C@H]1CC/C(Cn1cc(-c3ccc(F)cc3)nn1)=C\CC[C@@]1(C)O[C@@H]21` tested on HL-60(TB) leukemia.
-18.8

Please report the measured growth for `COc1cc(/C=C/C(=O)c2cc(-c3ccc(F)cc3)ccc2O)cc(OC)c1OC` tested on HL-60(TB) leukemia.
39.5

Please report the measured growth for `CCOc1cccc(-c2nc(N)nc(Nc3ccccc3SSc3ccccc3Nc3nc(N)nc(-c4cccc(OCC)c4)n3)n2)c1` tested on HL-60(TB) leukemia.
8.5

Please report the measured growth for `O=C(CCl)N1c2cccc3cccc(c23)N(C(=O)CCl)C1c1cn(-c2ccccc2)nc1-c1cccc([N+](=O)[O-])c1` tested on HL-60(TB) leukemia.
27.7
